Values compiled from patent US20100063074A1.

System: H157
assayComment: Cell growth inhibition IC50, H157
Format: cell-based
runConditions: Homo sapiens, NCI-H157, Lung carcinoma
measuredParameter: IC50 (µM)
Give the quantity in µM, number only.

**Query** // lookup IC50 | system=H157 | key= CS(=O)(=O)CCNCc1ccc(-c2ccc3ncnc(Nc4ccc(OCc5cccc(F)c5)c(Cl)c4)c3c2)o1.Cc1ccc(S(=O)(=O)O)cc1 [GW572016F, ditosylate monohydrate]
**Result** 5.98

---

Tested on: NCI-H460
assayComment: Cell growth inhibition IC50, NCI-H460
Type: cell-based
runConditions: Homo sapiens, Lung Carcinoma
measuredParameter: IC50

**Query** Quick one: IC50 for CS(=O)(=O)CCNCc1ccc(-c2ccc3ncnc(Nc4ccc(OCc5cccc(F)c5)c(Cl)c4)c3c2)o1.Cc1ccc(S(=O)(=O)O)cc1 [GW572016F, ditosylate monohydrate] ?
**Result** 9 µM
